What Ki was measured for each of the following?
assay overview: Inhibition of Vibrio cholerae alpha carbonic anhydrase incubated for 30 mins prior to testing measured for 10 to 100 secs by phenol red-based stopped-flow CO2 hydration assay

So what's the measured Ki for this one? Cc1ccc(NC(=S)Nc2ccc3c(c2)B(O)OC3)cc1
109 nM

Can you check OB1OCc2ccc(NC(=S)Nc3ccccc3)cc21 next?
1200 nM

Can you check OB1OCc2cc(F)ccc21 next?
157 nM

Can you check COc1ccc(NC(=S)Nc2ccc3c(c2)B(O)OC3)cc1 next?
165 nM

Can you check COc1ccc(C)cc1NC(=O)Nc1ccc2c(c1)B(O)OC2 next?
556 nM

Can you check OB1OCc2ccc(NC(=S)NCc3ccco3)cc21 next?
220 nM

Can you check OB1OCc2ccccc21 next?
319 nM

Can you check OB1OCc2ccc(NC(=S)NCCc3ccccc3)cc21 next?
102 nM

Can you check Cc1cc(Cl)cc(CNC(=O)Nc2ccc3c(c2)B(O)OC3)c1 next?
53 nM

Can you check OB1OCc2ccc(NC(=S)Nc3ccc(C(F)(F)F)cc3)cc21 next?
72 nM

Can you check O=C(Nc1ccccc1)Nc1ccc2c(c1)B(O)OC2 next?
117 nM

Can you check O=C(NCc1ccco1)Nc1ccc2c(c1)B(O)OC2 next?
164 nM

Can you check O=C(Nc1ccc(C(F)(F)F)cc1)Nc1ccc2c(c1)B(O)OC2 next?
46 nM

Can you check OB1OCc2ccc(NC(=S)Nc3ccc(F)cc3)cc21 next?
112 nM

Can you check O=C(Nc1ccc(F)cc1)Nc1ccc2c(c1)B(O)OC2 next?
48 nM

Can you check O=[N+]([O-])c1ccc(NC(=S)Nc2ccc3c(c2)B(O)OC3)cc1 next?
80 nM

Can you check O=C(Nc1ccc2c(c1)B(O)OC2)Nc1c(Cl)cc(Cl)cc1Cl next?
76 nM

Can you check O=C(Nc1ccc(Cl)cc1)Nc1ccc2c(c1)B(O)OC2 next?
56 nM

Can you check OB1OCc2ccc(NC(=S)NCc3ccccc3)cc21 next?
96 nM

Can you check OB1OCc2ccc(NC(=S)Nc3ccc4ccccc4c3)cc21 next?
603 nM

Can you check Nc1ccc2c(c1)B(O)OC2 next?
165 nM

Can you check O=[N+]([O-])c1ccc2c(c1)B(O)OC2 next?
142 nM

Can you check O=C(NCc1ccccc1)Nc1ccc2c(c1)B(O)OC2 next?
90 nM

Can you check CC(=O)c1ccc(NC(=O)Nc2ccc3c(c2)B(O)OC3)cc1 next?
103 nM
